Values were extracted from patent US7445897B2.

- ASSAY SYSTEM: MDR1 (wild type) (Homo sapiens, UniProt P08183, G185V/S893A)
- Sequence (P08183 whole entry G185V/S893A): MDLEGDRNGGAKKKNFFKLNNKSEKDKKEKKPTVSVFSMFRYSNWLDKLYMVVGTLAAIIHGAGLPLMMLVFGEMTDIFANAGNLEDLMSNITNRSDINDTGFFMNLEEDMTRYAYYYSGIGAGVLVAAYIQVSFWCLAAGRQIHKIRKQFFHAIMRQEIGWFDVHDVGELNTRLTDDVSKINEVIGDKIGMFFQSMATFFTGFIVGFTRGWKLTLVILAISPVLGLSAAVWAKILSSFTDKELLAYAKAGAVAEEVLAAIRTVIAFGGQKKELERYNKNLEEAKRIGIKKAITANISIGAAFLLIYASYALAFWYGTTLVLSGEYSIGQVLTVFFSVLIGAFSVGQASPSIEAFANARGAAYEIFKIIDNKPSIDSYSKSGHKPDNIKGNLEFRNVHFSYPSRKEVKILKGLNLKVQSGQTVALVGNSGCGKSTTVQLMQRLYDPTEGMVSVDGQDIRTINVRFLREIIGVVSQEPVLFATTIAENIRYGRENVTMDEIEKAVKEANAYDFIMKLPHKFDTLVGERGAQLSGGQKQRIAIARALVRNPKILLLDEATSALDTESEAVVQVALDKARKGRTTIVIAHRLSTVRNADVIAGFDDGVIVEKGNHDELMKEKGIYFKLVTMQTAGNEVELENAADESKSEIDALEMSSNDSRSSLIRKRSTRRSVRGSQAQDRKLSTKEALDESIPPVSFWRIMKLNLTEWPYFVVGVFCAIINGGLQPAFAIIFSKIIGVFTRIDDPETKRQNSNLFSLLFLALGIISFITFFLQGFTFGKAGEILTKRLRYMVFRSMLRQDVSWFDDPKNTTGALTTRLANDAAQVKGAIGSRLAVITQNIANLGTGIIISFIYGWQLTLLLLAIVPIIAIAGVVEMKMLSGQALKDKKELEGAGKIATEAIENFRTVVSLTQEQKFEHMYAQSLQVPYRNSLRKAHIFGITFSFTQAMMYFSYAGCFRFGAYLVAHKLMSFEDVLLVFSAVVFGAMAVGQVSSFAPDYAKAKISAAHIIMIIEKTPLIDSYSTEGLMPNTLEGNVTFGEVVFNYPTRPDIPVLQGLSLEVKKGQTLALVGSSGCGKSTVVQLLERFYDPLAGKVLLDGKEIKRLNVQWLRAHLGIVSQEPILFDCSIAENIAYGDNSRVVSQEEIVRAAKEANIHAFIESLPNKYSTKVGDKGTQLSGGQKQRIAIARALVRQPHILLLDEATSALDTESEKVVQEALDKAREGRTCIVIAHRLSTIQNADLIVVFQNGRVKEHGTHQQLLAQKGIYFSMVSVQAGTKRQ
- ASSAY TEXT: in vitro
Quick reference: Km of the listed items.
Value expressed in µM; do not type the unit.

1. CC(C)CN(C[C@@H](O)[C@H](Cc1ccccc1)NC(=O)O[C@H]1CCOC1)S(=O)(=O)c1ccc(N)cc1: 10.2

Now consider a different compound.
Please look at this compound and report its Km: CC(C)(C)NC(=O)[C@@H]1C[C@@H]2CCCC[C@@H]2CN1C[C@@H](O)[C@H](Cc1ccccc1)NC(=O)[C@H](CC(N)=O)NC(=O)c1ccc2ccccc2n1
18
